Origin of values: BindingDB's records for doi:10.7270/Q2Q52NH6

# Tested system: Tyrosine-protein phosphatase non-receptor type 1 (Homo sapiens)
# Sequence (P18031 whole entry): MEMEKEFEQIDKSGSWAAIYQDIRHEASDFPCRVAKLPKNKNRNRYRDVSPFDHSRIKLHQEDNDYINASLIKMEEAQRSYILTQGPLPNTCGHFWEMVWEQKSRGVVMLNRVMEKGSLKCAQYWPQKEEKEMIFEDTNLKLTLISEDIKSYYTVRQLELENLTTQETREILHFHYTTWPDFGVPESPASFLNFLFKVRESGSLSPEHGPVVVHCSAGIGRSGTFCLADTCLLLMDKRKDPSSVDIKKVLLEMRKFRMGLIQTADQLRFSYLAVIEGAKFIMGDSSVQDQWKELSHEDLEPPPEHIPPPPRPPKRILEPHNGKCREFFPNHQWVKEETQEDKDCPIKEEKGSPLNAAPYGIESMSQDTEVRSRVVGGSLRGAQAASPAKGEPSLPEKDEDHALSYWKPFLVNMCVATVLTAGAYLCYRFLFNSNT
Lab note: anything with IC50 below 60 µM is marked true; values at 60 µM or higher are marked false.

Ask | Dear reviewer, please state whether O=c1oc2c(O)c(O)cc3c(=O)oc4c(O)c(O)cc1c4c23 has IC50 strictly beneath 60 µM.
Reply | true

Ask | // repeat for O=c1cc(-c2ccc(O)c(O)c2)oc2cc(O[C@@H]3O[C@H](CO)[C@@H](O)[C@H](O)[C@H]3O)cc(O)c12 and report
Reply | false

Ask | // repeat for O=C(O)[C@H]1O[C@@H](Oc2cc(O)c3c(=O)c(O)c(-c4ccc(O)cc4)oc3c2)[C@H](O)[C@@H](O)[C@@H]1O [Kaempferol 7-O-β-D-glucuronide (5)] and report
Reply | true

Ask | // repeat for COc1cc(C2Oc3c(OC)cc(CCCO)cc3C2CO)ccc1O[C@@H]1OC(CO)[C@@H](O)C(O)[C@@H]1O (stereo partly drawn) and report
Reply | false

Ask | // repeat for O=C(O)[C@H]1O[C@@H](Oc2cc(O)c3c(=O)cc(-c4ccc(O)cc4)oc3c2)[C@H](O)[C@@H](O)[C@@H]1O and report
Reply | true

Ask | // repeat for O=c1c(O[C@@H]2O[C@H](CO)[C@@H](O)[C@H](O)[C@H]2O)c(-c2ccc(O)c(O)c2)oc2cc(O)cc(O)c12 and report
Reply | false

Ask | // repeat for O=c1cc(-c2ccc(O)cc2)oc2cc(O[C@@H]3O[C@H](CO)[C@@H](O)[C@H](O)[C@H]3O)cc(O)c12 and report
Reply | false

Ask | // repeat for O=c1c(O)c(-c2ccc(O)c(O[C@@H]3O[C@H](CO)[C@@H](O)[C@H](O)[C@H]3O)c2)oc2cc(O)cc(O)c12 and report
Reply | false

Ask | // repeat for O=C(OCCCCOc1cc(O)c2c(=O)cc(-c3ccc(O)c(O)c3)oc2c1)[C@H]1O[C@@H](O)[C@H](O)[C@@H](O)[C@@H]1O and report
Reply | false

Ask | // repeat for O=c1c(O)c(-c2ccc(O)cc2)oc2cc(O[C@@H]3O[C@H](CO)[C@@H](O)[C@H](O)[C@H]3O)cc(O)c12 [Kaempferol 7-O-β-D-glucoside (4)] and report
Reply | false

Ask | // repeat for O=C(OCOc1cc(O)c2c(=O)cc(-c3ccc(O)c(O)c3)oc2c1)[C@H]1O[C@@H](O)[C@H](O)[C@@H](O)[C@@H]1O and report
Reply | true

Ask | // repeat for COC(=O)[C@H]1O[C@@H](Oc2cc(O)c3c(=O)cc(-c4ccc(O)cc4)oc3c2)C(O[C@@H]2OC(CO)[C@@H](O)C(O)[C@@H]2O)[C@H]1O (stereo partly drawn) and report
Reply | false

* * *

Sequence of the target: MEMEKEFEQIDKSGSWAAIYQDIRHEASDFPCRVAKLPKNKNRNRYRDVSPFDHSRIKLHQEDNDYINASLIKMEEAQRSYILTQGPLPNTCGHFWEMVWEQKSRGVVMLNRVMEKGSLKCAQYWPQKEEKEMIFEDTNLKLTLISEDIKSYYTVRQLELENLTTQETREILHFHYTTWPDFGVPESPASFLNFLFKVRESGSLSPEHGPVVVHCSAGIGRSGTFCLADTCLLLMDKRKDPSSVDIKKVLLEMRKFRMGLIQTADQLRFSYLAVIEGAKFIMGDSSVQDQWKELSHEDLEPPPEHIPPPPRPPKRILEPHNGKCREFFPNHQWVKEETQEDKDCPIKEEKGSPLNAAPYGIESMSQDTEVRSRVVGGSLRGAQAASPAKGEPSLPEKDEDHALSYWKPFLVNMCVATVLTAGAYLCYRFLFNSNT
Reported endpoint: Ki (nM)
The figure you give is taken to be in nM; do not add the unit.

Ask | Item O=C(O)[C@H]1O[C@@H](Oc2cc(O)c3c(=O)cc(-c4ccc(O)cc4)oc3c2)[C@H](O)[C@@H](O)[C@@H]1O has what recorded Ki?
Reply | 2600

Ask | // repeat for O=c1oc2c(O)c(O)cc3c(=O)oc4c(O)c(O)cc1c4c23 and report
Reply | 2800

* * *

# Tested system: Tyrosine-protein phosphatase non-receptor type 1 (Homo sapiens, UniProt P18031)
# Sequence (P18031 whole entry): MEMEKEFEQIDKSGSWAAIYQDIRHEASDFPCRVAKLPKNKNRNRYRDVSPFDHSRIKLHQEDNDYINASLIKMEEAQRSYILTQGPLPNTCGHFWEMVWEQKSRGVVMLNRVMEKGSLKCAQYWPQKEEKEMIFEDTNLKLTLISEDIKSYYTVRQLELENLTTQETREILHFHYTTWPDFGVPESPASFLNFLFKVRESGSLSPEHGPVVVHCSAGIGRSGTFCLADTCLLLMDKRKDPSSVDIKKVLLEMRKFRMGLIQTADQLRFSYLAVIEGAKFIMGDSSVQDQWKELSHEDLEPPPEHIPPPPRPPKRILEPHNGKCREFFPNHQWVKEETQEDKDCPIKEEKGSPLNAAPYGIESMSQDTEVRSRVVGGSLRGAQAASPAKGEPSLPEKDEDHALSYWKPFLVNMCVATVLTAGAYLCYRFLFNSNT
Reported endpoint: pIC50
Hey, just a heads up that pIC50 is the negative log base 10 of the concentration in molar.

Ask | Item O=C(O[C@H]1OC(CO)[C@@H](O)[C@@H]2OC(=O)c3cc(O)c(O)c(c3O)-c3c(O)c(O)cc(c3O)C(=O)OC12)c1cc(O)c(O)c(O)c1 (some centres undefined) has what recorded pIC50?
Reply | 4.77

Ask | // repeat for O=C(O)[C@H]1O[C@@H](Oc2cc(O)c3c(=O)cc(-c4ccc(O)c(O)c4)oc3c2)[C@H](O)[C@@H](O)[C@@H]1O [Luteolin 7-O-β-D-glucuronide (14)] and report
Reply | 4.42

Ask | // repeat for O=c1cc(-c2ccc(O)c(O[C@@H]3O[C@H](CO)[C@@H](O)[C@H](O)[C@H]3O)c2)oc2cc(O)cc(O)c12 and report
Reply | 4.00

Ask | // repeat for O=c1cc(-c2ccc(O)cc2)oc2cc(O)cc(O)c12 and report
Reply | 4.00

* * *

IC50 data for UniProtKB P22303 follow.
The figure you give is taken to be in µM; do not add the unit.

Ask | Item O=C(O)[C@H]1O[C@@H](Oc2cc(O)c3c(=O)cc(-c4ccc(O)c(O)c4)oc3c2)[C@H](O)[C@@H](O)[C@@H]1O [Luteolin 7-O-β-D-glucuronide (14)] has what recorded IC50?
Reply | 88.1

Ask | // repeat for O=c1c(O[C@@H]2O[C@H](CO)[C@@H](O)[C@H](O)[C@H]2O)c(-c2ccc(O)c(O)c2)oc2cc(O)cc(O)c12 and report
Reply | 84.8

Ask | // repeat for O=c1cc(-c2ccc(O)cc2)oc2cc(O[C@@H]3O[C@H](CO)[C@@H](O)[C@H](O)[C@H]3O)cc(O)c12 [NSC-407303] and report
Reply | 100

Ask | // repeat for COC(=O)[C@H]1O[C@@H](Oc2cc(O)c3c(=O)cc(-c4ccc(O)cc4)oc3c2)C(O[C@@H]2OC(CO)[C@@H](O)C(O)[C@@H]2O)[C@H]1O (stereo partly specified) [Agriflavone (2)] and report
Reply | 63.4

Ask | // repeat for O=c1oc2c(O)c(O)cc3c(=O)oc4c(O)c(O)cc1c4c23 [Elagic Acid] and report
Reply | 100

Ask | // repeat for O=c1cc(-c2ccc(O)c(O[C@@H]3O[C@H](CO)[C@@H](O)[C@H](O)[C@H]3O)c2)oc2cc(O)cc(O)c12 and report
Reply | 74.6

* * *

# Tested system: Acetylcholinesterase (Homo sapiens, UniProt P22303)
# Sequence (P22303 whole entry): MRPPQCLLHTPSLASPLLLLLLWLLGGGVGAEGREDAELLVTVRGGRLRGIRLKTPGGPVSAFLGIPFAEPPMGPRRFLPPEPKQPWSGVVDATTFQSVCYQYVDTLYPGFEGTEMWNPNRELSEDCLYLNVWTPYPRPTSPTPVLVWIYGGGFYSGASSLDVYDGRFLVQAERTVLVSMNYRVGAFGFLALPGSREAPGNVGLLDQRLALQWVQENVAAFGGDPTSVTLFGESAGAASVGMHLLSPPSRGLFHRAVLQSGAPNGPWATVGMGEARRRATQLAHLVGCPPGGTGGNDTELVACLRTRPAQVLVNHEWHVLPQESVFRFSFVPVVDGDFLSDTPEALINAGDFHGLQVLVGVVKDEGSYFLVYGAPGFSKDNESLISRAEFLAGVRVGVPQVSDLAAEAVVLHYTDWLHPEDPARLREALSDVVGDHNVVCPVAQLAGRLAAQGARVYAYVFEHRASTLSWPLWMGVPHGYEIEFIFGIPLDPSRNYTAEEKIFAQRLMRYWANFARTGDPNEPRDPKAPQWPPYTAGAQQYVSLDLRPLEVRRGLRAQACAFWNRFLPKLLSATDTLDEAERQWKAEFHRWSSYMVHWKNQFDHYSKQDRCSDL
Please go through the items and note down their IC50.

Ask | # get_value(readout= IC50, system= Acetylcholinesterase (Homo sapiens, UniProt P22303)) for O=c1cc(-c2ccc(O)c(O)c2)oc2cc(O[C@@H]3O[C@H](CO)[C@@H](O)[C@H](O)[C@H]3O)cc(O)c12
Reply | 74.7 µM

Ask | // repeat for O=C(OCOc1cc(O)c2c(=O)cc(-c3ccc(O)c(O)c3)oc2c1)[C@H]1O[C@@H](O)[C@H](O)[C@@H](O)[C@@H]1O and report
Reply | 65.9 µM

Ask | // repeat for O=c1cc(-c2ccc(O)cc2)oc2cc(O)cc(O)c12 and report
Reply | 64.3 µM

Ask | // repeat for O=c1c(O)c(-c2ccc(O)c(O[C@@H]3O[C@H](CO)[C@@H](O)[C@H](O)[C@H]3O)c2)oc2cc(O)cc(O)c12 and report
Reply | 89.2 µM
